system_under_test: Androgen receptor (Rattus norvegicus)
Sequence (P15207 whole entry): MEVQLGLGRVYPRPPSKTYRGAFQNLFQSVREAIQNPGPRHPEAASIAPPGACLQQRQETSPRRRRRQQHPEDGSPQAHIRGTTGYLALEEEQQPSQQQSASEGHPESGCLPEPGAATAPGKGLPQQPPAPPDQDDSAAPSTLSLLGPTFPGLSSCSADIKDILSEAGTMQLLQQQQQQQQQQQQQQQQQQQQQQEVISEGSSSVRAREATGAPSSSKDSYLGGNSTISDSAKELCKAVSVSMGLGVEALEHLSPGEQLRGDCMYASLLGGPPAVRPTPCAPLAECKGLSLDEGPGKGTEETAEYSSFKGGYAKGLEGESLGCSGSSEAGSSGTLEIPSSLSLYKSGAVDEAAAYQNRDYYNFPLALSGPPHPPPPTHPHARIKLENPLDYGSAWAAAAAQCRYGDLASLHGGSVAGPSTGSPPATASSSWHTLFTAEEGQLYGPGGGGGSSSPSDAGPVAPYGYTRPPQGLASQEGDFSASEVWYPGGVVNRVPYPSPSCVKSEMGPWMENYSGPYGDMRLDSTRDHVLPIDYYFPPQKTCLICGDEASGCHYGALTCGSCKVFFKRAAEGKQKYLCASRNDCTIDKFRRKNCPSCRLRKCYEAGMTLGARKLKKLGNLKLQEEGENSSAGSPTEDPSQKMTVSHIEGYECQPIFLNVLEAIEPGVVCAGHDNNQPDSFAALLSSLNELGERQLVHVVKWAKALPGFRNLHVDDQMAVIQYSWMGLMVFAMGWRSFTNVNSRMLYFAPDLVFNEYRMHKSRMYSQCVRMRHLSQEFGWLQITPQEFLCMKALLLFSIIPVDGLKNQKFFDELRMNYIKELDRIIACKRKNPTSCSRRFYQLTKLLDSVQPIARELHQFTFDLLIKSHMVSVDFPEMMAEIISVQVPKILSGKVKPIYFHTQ
Exercise: for every item that follows, state its recorded IC50.
I only need the number, in µM, no unit after it.

Name the reported IC50 value associated with the compound O=C1CCC(=C2C[C@H]3[C@@H](C2)[C@H]2C[C@@H]3[C@H](O)C2)CC1
10.4

Name the reported IC50 value associated with the compound C=C[C@@]1(O)C[C@H]2C[C@@H]1[C@@H]1CC(=C3CCC(=O)CC3)C[C@H]21
62.5

Name the reported IC50 value associated with the compound C[C@@]1(O)C[C@H]2C[C@@H]1[C@@H]1CC(=C3CCC(=O)CC3)C[C@H]21
27.4

Name the reported IC50 value associated with the compound O=C1CCC(=C2C[C@@H]3[C@H](C2)[C@@H]2C[C@H]3[C@@H](O)C2)CC1
3.9

Name the reported IC50 value associated with the compound C#C[C@]1(O)C[C@@H]2C[C@H]1[C@H]1CC(=C3CCC(=O)CC3)C[C@@H]21
13.5

Name the reported IC50 value associated with the compound O=C1CCC(=C2C[C@@H]3[C@H](C2)[C@@H]2C[C@H]3[C@H](O)C2)CC1
35.9

Name the reported IC50 value associated with the compound O=C1CCC(=C2C[C@H]3[C@@H]4CC(=O)[C@@H](C4)[C@H]3C2)CC1
14.2

Name the reported IC50 value associated with the compound O=C1CCC(=C2C[C@H]3[C@H]4C[C@@H]([C@H]3C2)[C@](O)(C(F)(F)F)C4)CC1
15.6

Value source: ChEMBL document CHEMBL1133537
